Data provenance is PubChem BioAssay (NCI).

- System: SK-OV-3 ovarian
- ASSAY PROCEDURE: NCI-60 one-dose screen, 48 h (100 = growth as untreated, 0 = no growth, -100 = all killed)
- CONDITION INFO: 10 µM unless noted
The panel holds about 83,000 compounds, 20% with a hit somewhere; the sample as a whole holds those more often.
Field: growth. Provide a value for each of the molecules that follow.
Numbers only, in %.

Example entries begin here.
• COc1ccc2cc(C(C)C(=O)Nc3ccc(-c4n[nH]c(=S)n4C4CCCCC4)cc3)ccc2c1 (stereo not given) = 105
• Cc1c(C(=O)NCCN2CCOCC2)cn2ncnc(Oc3ccc(NC(=O)Nc4ccc(Cl)c(C(F)(F)F)c4)cc3)c12 = 30.6
• Clc1ccc2c(c1)N(CCCN1CCCC1)c1ccccc1S2 = 37.2
• COc1ccc(C2NC(=O)C(C#N)c3c2sc2c(F)cccc32)c(OC)c1 (stereo not given) = 50.8

As a next step, examine the molecule that follows.
Case `CCCCCCCCCCCCCCCCCCOc1ccc(CC(=O)OCC[N+]2(C)CCCCC2)cc1` , SK-OV-3 ovarian, growth recorded as 104
